Study System: human chymase (Homo sapiens)
Construct: made in house; host or cells: COS7 cells (transient transfection)
Sequence (P23946 22-247): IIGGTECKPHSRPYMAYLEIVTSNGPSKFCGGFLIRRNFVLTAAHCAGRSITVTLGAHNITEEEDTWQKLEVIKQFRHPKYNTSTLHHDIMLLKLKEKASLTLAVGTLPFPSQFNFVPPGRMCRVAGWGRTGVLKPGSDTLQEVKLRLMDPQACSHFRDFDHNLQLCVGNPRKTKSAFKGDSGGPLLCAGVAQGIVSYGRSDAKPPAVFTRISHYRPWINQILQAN
Experimental Protocol: Human chymase inhibitory activity (in vitro, angiotensin I substrate)
Type: biochemical
Condition Details: recombinant human chymase (COS7 cells); substrate angiotensin I; 37° C.; read-out: Human Chymase Inhibition (IC50:nM)
Mark 1 for IC50 under 60 nM, -1 if at or over.

compound="Cc1noc(C)c1C(=O)N[C@H](C(=O)N1CCC[C@H]1C(=O)N[C@@H](Cc1ccc2ccccc2c1)C(=O)C(F)(F)F)C(C)C [I-A-2]" class_label=-1
compound="CC[C@H](NC(=O)c1c(C)noc1C)C(=O)N1CCC[C@H]1C(=O)N[C@@H](Cc1csc2ccccc12)C(=O)C(F)(F)F [I-A-3]" class_label=1
compound="CC(C)[C@H](NC(=O)c1ccoc1)C(=O)N1CCC[C@H]1C(=O)NC(Cc1ccc2ccccc2c1)C(=O)C(F)(F)F (stereo partly drawn) [I-A-63]" class_label=-1
compound="Cc1nnsc1C(=O)N[C@H](C(=O)N1CCC[C@H]1C(=O)N[C@@H](Cc1csc2ccccc12)C(=O)C(F)(F)F)C(C)C [I-A-20]" class_label=1
compound="CC(C)[C@H](NC(=O)c1ccc2c(c1)no[n+]2[O-])C(=O)N1CCC[C@H]1C(=O)NC(Cc1csc2ccccc12)C(=O)C(F)(F)F (stereo partly drawn) [I-A-52]" class_label=1
compound="CC(C)[C@H](NC(=O)c1ccoc1)C(=O)N1CCC[C@H]1C(=O)NC(Cc1csc2ccccc12)C(=O)C(F)(F)F (stereo partly drawn) [I-A-64]" class_label=-1

###

Study System: monkey chymase (Macaca fascicularis)
Construct: chymase was extracted from homogenized monkey cheek pouch and stomach; from tissue; host or cells: monkey cheek pouch and stomach
Sequence (P56435 22-247): as the sequence (P23946 22-247) above, with F29S, A44V, E63K, D159Y, S201L, Q221K counted along it
Experimental Protocol: Monkey chymase inhibitory activity (in vitro, angiotensin I substrate)
Format: biochemical
Condition Details: chymase purified from monkey cheek pouch and stomach; substrate angiotensin I; 37° C.; read-out: Monkey Chymase Inhibition (IC50:nM)
Structures can show the parent of a compound that is named as a salt.
Assay Metric: IC50 (nM)

compound="CC(C)[C@H](NC(=O)c1ccoc1)C(=O)N1CCC[C@H]1C(=O)NC(Cc1ccc2ccccc2c1)C(=O)C(F)(F)F (some centres unmarked)" study_system="monkey chymase (Macaca fascicularis)" meas_value=150
compound="Cc1ccc(CC(NC(=O)[C@@H]2CCCN2C(=O)[C@@H](NC(=O)c2c(C)noc2C)C(C)C)C(=O)C(F)(F)F)cc1 (some centres unmarked)" study_system="monkey chymase (Macaca fascicularis)" meas_value=80
compound="CC[C@H](NC(=O)c1snnc1C)C(=O)N1CCC[C@H]1C(=O)NC(Cc1csc2ccccc12)C(=O)C(F)(F)F (some centres unmarked)" study_system="monkey chymase (Macaca fascicularis)" meas_value=19
compound="CC(C)[C@H](NC(=O)Cn1ccc(=O)n(CC(=O)O)c1=O)C(=O)N1CCC[C@H]1C(=O)NC(Cc1ccc(Cl)cc1)C(=O)C(F)(F)F (some centres unmarked)" study_system="monkey chymase (Macaca fascicularis)" meas_value=150
compound="Cc1noc(C)c1C(=O)N[C@H](C(=O)N1CCC[C@H]1C(=O)NC(Cc1ccc2c(c1)CCC2)C(=O)C(F)(F)F)C(C)C (some centres unmarked)" study_system="monkey chymase (Macaca fascicularis)" meas_value=220
compound="Cc1noc(C)c1C(=O)N[C@H](C(=O)N1CCC[C@H]1C(=O)NC(Cc1ccccc1F)C(=O)C(F)(F)F)C(C)C (some centres unmarked)" study_system="monkey chymase (Macaca fascicularis)" meas_value=51
compound="Cc1noc(C)c1C(=O)N[C@H](C(=O)N1CCC[C@H]1C(=O)NC(Cc1ccc(O)cc1)C(=O)C(F)(F)F)C(C)C (some centres unmarked)" study_system="monkey chymase (Macaca fascicularis)" meas_value=54
compound="Cc1noc(C)c1C(=O)N[C@H](C(=O)N1CCC[C@H]1C(=O)NC(Cc1cccs1)C(=O)C(F)(F)F)C(C)C (some centres unmarked)" study_system="monkey chymase (Macaca fascicularis)" meas_value=140
compound="CNC1CCN(C(=O)N[C@H](C(=O)N2CCC[C@H]2C(=O)N[C@@H](Cc2ccccc2)C(=O)C(F)(F)F)C(C)C)CC1 [Reference compound (A), hydrochloride, reference compound]" study_system="monkey chymase (Macaca fascicularis)" meas_value=1600
compound="COc1ccc(CC(NC(=O)[C@@H]2CCCN2C(=O)[C@@H](NC(=O)c2c(C)noc2C)C(C)C)C(=O)C(F)(F)F)cc1 (some centres unmarked)" study_system="monkey chymase (Macaca fascicularis)" meas_value=95
compound="CC(C)[C@H](NC(=O)c1ccc2snnc2c1)C(=O)N1CCC[C@H]1C(=O)NC(Cc1csc2ccccc12)C(=O)C(F)(F)F (some centres unmarked)" study_system="monkey chymase (Macaca fascicularis)" meas_value=63
compound="CC(C)[C@H](NC(=O)c1onc2ccccc12)C(=O)N1CCC[C@H]1C(=O)NC(Cc1csc2ccccc12)C(=O)C(F)(F)F (some centres unmarked)" study_system="monkey chymase (Macaca fascicularis)" meas_value=250
compound="CC(C)[C@H](NC(=O)c1noc2ccccc12)C(=O)N1CCC[C@H]1C(=O)NC(Cc1csc2ccccc12)C(=O)C(F)(F)F (some centres unmarked)" study_system="monkey chymase (Macaca fascicularis)" meas_value=210
compound="CC[C@H](NC(=O)c1snnc1C)C(=O)N1CCC[C@H]1C(=O)NC(Cc1ccc2ccccc2c1)C(=O)C(F)(F)F (some centres unmarked)" study_system="monkey chymase (Macaca fascicularis)" meas_value=50
